Biological target: human (h) PAR2 (Homo sapiens)
Construct: expressed in transfected cells; host or cells: KNRK cells (KNRK-hPAR2)
Assay: IP1 accumulation assay in KNRK-hPAR2 cells
Assay type: cell-based
Conditions: 100 nM 2F; 30 μM of antagonist; read-out: KNRK-PAR2 100 nM 2F: ND (inhibition of 2F at 30 μM of antagonist)
ENDPOINT_NAME: inhibition at 30 µM

>  <COMPOUND>
CC(C)(C)c1cc(-c2ccc(F)cc2)cc2nc(C(=O)N3CCN(C(=O)CCC(=O)NC[C@H](O)[C@@H](O)[C@H](O)[C@H](O)CO)CC3(C)C)oc12

>  <inhibition at 30 µM>
< 50%

$$$$
>  <COMPOUND>
CC(C)CCC[C@@H](C)[C@H]1CCC2C3CCC4C[C@@H](OC(=O)C[C@H](NC(=O)CCOCCOCCOCCOCCOCCOCCOCCOCCNC(=O)Cn5cc(C(=O)N6CCN(C(=O)c7cn8nc(-c9ccc(F)cc9)cc(C(C)(C)C)c8n7)C(C)(C)C6)nn5)C(N)=O)CC[C@]4(C)C3CC[C@@]21C (stereo partly drawn)

>  <inhibition at 30 µM>
< 50%

$$$$

From here, focus on the item given below.
// query Query: inhibition at 30 µM; subject: CC(C)CCC[C@@H](C)[C@H]1CCC2C3CCC4C[C@@H](OC(=O)C[C@H](NC(=O)CCOCCOCCNC(=O)Cn5cc(C(=O)N6CCN(C(=O)c7cn8nc(-c9ccc(F)cc9)cc(C(C)(C)C)c8n7)C(C)(C)C6)nn5)C(N)=O)CC[C@]4(C)C3CC[C@@]21C (stereo partly drawn)
// result < 50%

* * *

Target: PAR2 (Homo sapiens, UniProt P55085)
Construct: HT-29 cells and HEK293 cells, which express endogenous PAR2; endogenous in cells; host or cells: HT-29
Test: IP1 accumulation assay in HEK293 cells (endogenous PAR2)
Type: cell-based
Details: trypsin (30 nM); read-out: IC50, trypsin-induced IP1 in HEK293 cells
Method: Inhibition of PAR2 signaling with known PAR2 inhibitor I-343 (FIG. 14A) was investigated in HT-29 cells and HEK293 cells, which express endogenous PAR2, and in KNRK cells expressing human (h) PAR2. Accumulation of inositol phosphate-1 (IP1) was measured in response to the PAR2-selective agonist 2-Furoyl-LIGRLO-NH2 (2F), an analogue of the trypsin-exposed tethered ligand, or trypsin. […]
ENDPOINT_NAME: IC50 (pM)
Report the value in pM with no unit label.

// query Recall the recorded IC50 for `Cc1nc(C(=O)N2CCN(C(=O)c3cn4nc(-c5ccc(F)cc5)cc(C(C)(C)C)c4n3)C(C)(C)C2)n[nH]1` with PAR2 (Homo sapiens, UniProt P55085) and state it.
// result 400

* * *

Molecular target: PAR2 (Homo sapiens, UniProt P55085)
Construct: HT-29 cells and HEK293 cells, which express endogenous PAR2; endogenous in cells; host or cells: HT-29
Sequence (P55085 26-397): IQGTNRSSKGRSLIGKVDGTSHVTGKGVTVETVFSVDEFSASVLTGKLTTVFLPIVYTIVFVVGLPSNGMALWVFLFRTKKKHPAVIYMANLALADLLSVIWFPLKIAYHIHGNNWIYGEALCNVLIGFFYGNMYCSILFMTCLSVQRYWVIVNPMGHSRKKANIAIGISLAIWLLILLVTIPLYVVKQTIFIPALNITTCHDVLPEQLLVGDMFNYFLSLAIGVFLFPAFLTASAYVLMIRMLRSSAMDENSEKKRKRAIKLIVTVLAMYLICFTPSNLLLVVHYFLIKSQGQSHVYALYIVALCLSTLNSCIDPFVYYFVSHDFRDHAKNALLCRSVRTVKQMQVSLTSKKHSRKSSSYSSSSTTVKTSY
Assay: IP1 accumulation assay in HT-29 cells (endogenous PAR2)
Type: cell-based
Details: 2F (300 nM)-induced IP1, HT-29 cells; read-out: HT-29 300 nM 2F pIC50 ± SEM (converted)
ENDPOINT_NAME: IC50 (µM)
Only the number, expressed in µM, is required.

// known answers, use as guide
>  <COMPOUND_STRING>
CC(C)(C)c1cc(-c2ccc(F)cc2)nn2cc(C(=O)N3CCN(C(=O)c4cn(CC(=O)O)nn4)CC3(C)C)nc12

>  <IC50, µM>
0.138

$$$$
>  <COMPOUND_STRING>
CCCCCCCCCCCCCCCCNC(=O)C[C@H](NC(=O)CCOCCOCCOCCOCCOCCOCCOCCOCCOCCOCCOCCOCCNC(=O)Cn1cc(C(=O)N2CCN(C(=O)c3cn4nc(-c5ccc(F)cc5)cc(C(C)(C)C)c4n3)C(C)(C)C2)nn1)C(N)=O

>  <IC50, µM>
0.0472

$$$$
>  <COMPOUND_STRING>
COC(=O)C12CCC(C(=O)N3CCN(C(=O)c4cn5nc(-c6ccc(F)cc6)cc(C(C)(C)C)c5n4)C(C)(C)C3)(CC1)CC2

>  <IC50, µM>
0.0427

$$$$

// query What does the record list as IC50 for `CC(C)(C)c1cc(-c2ccc(F)cc2)nn2cc(C(=O)N3CCN(C(=O)[C@H]4CC[C@@H](NC(=O)[C@H](O)[C@@H](O)[C@@H](O)[C@H](O)C(N)=O)CC4)CC3(C)C)nc12` ?
// result 0.406

// query Field request: IC50 | item: `CC(C)(C)c1cc(-c2ccc(F)cc2)nn2cc(C(=O)N3CCN(C(=O)c4cn(CC(=O)NCCOCCOCCO)nn4)CC3(C)C)nc12`
// result 0.18
